system: Cannabinoid receptor 2 (Homo sapiens)
Sequence (P34972 whole entry): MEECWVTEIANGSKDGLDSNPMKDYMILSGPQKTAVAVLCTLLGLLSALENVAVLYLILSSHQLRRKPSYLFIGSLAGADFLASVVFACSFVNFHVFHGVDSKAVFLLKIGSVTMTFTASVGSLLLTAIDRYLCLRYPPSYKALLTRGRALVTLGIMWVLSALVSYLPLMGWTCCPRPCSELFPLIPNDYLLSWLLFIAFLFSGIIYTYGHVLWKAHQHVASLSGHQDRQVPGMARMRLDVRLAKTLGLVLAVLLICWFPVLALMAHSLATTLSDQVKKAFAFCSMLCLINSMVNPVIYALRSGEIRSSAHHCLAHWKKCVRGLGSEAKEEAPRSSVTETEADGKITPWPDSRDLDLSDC
procedure text: cAMP Assay: The following mixtures and buffer solutions were prepared: (a) Buffer 1: HBSS (Mediatech Cat#21-023-CV) with 5 mM HEPES (1 mM stock, Gibco BRL Cat#15630-056) and 0.1% BSA (7.5% stock, Invitrogen Cat#15260-037); (b) Buffer 2: 0.5 mM IBMX (200 mM stock in DMSO, Sigma 15879) in Buffer 1; (c) 1 uM cAMP Standard (50 uM stock, Perkin Elmer Cat# AD0262) diluted in Buffer 2 and serially diluted in Buffer 2, 12 doses at 1/2 dilutions resulting in a dose range of 1 uM to 0.5 nM; (d) d2 labelled cAMP (CisBio HTRF Detection Kit Cat #62AM4PEB reconstituted with 6 ml dH2O) diluted 1/20 with lysis buffer (CisBio HTRF Detection Kit Cat #62AM4PEB); (e) anti-cAMP (CisBio HTRF Detection Kit Cat #62AM4PEB reconstituted with 5 ml dH2O) diluted 1/20 with lysis buffer (CisBio HTRF Detection Kit Cat #62AM4PEB); and (f) Forskolin (Sigma Cat# F6886, 10 mM in DMSO) diluted first in DMSO to 1 mM and then to 1.5 uM in Buffer 2.
Type: functional
assay metric: EC50

Reference set, count: 2
INSERT INTO assay_data (query_smiles, assay_metric, value) VALUES
  ('O=c1cc(Nc2ccc(Cc3ccccc3)cc2)c2cc(C(c3ccc(Cl)cc3)c3ccc(Cl)cc3)ccc2[nH]1', 'EC50', '> 10 µM'),
  ('CCOC(=O)CCCOc1ccc(Nc2cc(=O)[nH]c3ccc(C(c4ccc(Cl)cc4)c4ccc(Cl)cc4)cc23)cc1', 'EC50', '> 10 µM');

API: value(readout=EC50, system=Cannabinoid receptor 2 (Homo sapiens)) for record "O=c1cc(Nc2ccc(F)c(Cl)c2)c2cc(C(c3ccc(Cl)cc3)c3ccc(Cl)cc3)ccc2[nH]1"
> 10 µM

Recorded values, source ChEMBL document CHEMBL3886543.
